- Tested on: colistin-resistant P. aeruginosa isolated from cystic fibrosis patients
- Condition Details: colistin-resistant isolated from cystic fibrosis patients
Parameter Measured: MIC90 (µM)
Express it in µM; write the number only.

Challenge: So what does the record say about MIC90 for CC[C@H](C)[C@H](NC(=O)[C@H](CCCNC(=N)N)NC(=O)[C@H](CCCNC(=N)N)NC(=O)[C@H](CC(C)C)NC(=O)[C@H](Cc1c[nH]c2ccccc12)NC(=O)[C@H](C)NC(=O)[C@H](CCCCN)NC(=O)[C@@H](NC(=O)[C@H](CCCNC(=N)N)NC(=O)[C@H](CCCNC(=N)N)NC(=O)[C@H](CC(C)C)NC(=O)[C@@H](N)Cc1c[nH]c2ccccc12)[C@@H](C)CC)C(=O)N[C@@H](CCCCN)C(=O)N[C@@H](C)C(=O)O [RR4] ?
Response given: 32
